# GI50 per entry for DLD-1 colon cancer cells

compound: O=Cc1ccc(-c2ccc(-c3cccs3)s2)s1 [drawing 32]
relation qualifier: =
GI50 [µM]: 7.94
--
compound: CC(=O)OCc1ccc(-c2ccc(-c3cccs3)s2)s1
relation qualifier: <
GI50 [µM]: 0.01
--
compound: OCc1ccc(-c2ccc(-c3cccs3)s2)s1 [drawing 30]
relation qualifier: =
GI50 [µM]: 4.47
--
compound: OCc1ccc(-c2cccs2)s1
relation qualifier: =
GI50 [µM]: 0.316

* * *

# Tested on: ACHN renal cancer cells
# assay text: NCI human tumor cell line panel growth inhibition
# Assay type: cell-based
# test settings: read-out: Log10 GI50 (converted)
Measured GI50, listed per entry for reference.

compound: OCc1cc(-c2ccc(-c3cccs3)s2)sc1CO
tgt: ACHN renal cancer cells
relation qualifier: =
GI50 (µM): 56.2

compound: O=Cc1ccc(-c2ccc(-c3cccs3)s2)s1 [drawing 32]
tgt: ACHN renal cancer cells
relation qualifier: =
GI50 (µM): 51.3

compound: CC(=O)OCc1ccc(-c2ccc(-c3cccs3)s2)s1
tgt: ACHN renal cancer cells
relation qualifier: =
GI50 (µM): 17.8

compound: OCc1csc(-c2ccc(-c3ccc(CO)s3)s2)c1 [drawing 38]
tgt: ACHN renal cancer cells
relation qualifier: >
GI50 (µM): 10
